ASSAYED_TARGET: TDO (A172 cells) (Homo sapiens, UniProt P48775)
Construct: This assay utilised cancer cells which expressed either TDO or IDO; host or cells: A172 human glioblastoma cells
Sequence (P48775 whole entry): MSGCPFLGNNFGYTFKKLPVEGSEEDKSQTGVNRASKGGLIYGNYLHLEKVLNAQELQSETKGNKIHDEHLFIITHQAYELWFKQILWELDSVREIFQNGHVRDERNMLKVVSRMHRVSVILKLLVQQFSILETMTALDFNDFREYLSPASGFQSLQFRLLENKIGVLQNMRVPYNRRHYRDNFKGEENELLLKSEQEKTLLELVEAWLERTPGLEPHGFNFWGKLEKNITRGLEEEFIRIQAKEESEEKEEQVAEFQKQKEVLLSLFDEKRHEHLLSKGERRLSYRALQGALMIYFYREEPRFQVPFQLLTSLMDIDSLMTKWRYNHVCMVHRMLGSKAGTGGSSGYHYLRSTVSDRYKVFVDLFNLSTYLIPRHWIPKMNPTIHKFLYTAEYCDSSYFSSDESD
PROTOCOL_SUMMARY: TDO cell-based assay (A172), kynurenine production
CONDITIONS: A172 human glioblastoma cells, 500 μM L-Trp, 48 h, kynurenine by absorbance at 490 nm
MEASURED_METRIC: TDO cellular assay (A172) pIC50

In the examples that follow, each entry is paired with its recorded TDO cellular assay (A172) pIC50.
Prompt line: Item: "O=C(Nc1cccc2ncccc12)c1cc2cc(F)ccc2[nH]1" Test system: TDO (A172 cells) (Homo sapiens, UniProt P48775) Read-out: TDO cellular assay (A172) pIC50 Value: ?
Response line: − (− = pIC50 <4.50)

Prompt line: Item: "CCOc1ccc2[nH]c(C(=O)NC3(c4cnn(C)c4)CC3)cc2c1" Test system: TDO (A172 cells) (Homo sapiens, UniProt P48775) Read-out: TDO cellular assay (A172) pIC50 Value: ?
Response line: − (− = pIC50 <4.50)

Prompt line: Item: "Cc1cc(C2(NC(=O)c3cc4cc(Cl)ccc4[nH]3)CC2)no1" Test system: TDO (A172 cells) (Homo sapiens, UniProt P48775) Read-out: TDO cellular assay (A172) pIC50 Value: ?
Response line: − (− = pIC50 <4.50)

Prompt line: Item: "C[C@@H](NC(=O)c1cc2ccc(O)cc2[nH]1)c1ccccc1" Test system: TDO (A172 cells) (Homo sapiens, UniProt P48775) Read-out: TDO cellular assay (A172) pIC50 Value: ?
Response line: + (+ = pIC50 4.50-<5.00)

Prompt line: Item: CC(NC(=O)c1cc2cc(Cl)ccc2[nH]1)c1ccccc1 (centres unmarked) Test system: TDO (A172 cells) (Homo sapiens, UniProt P48775) Read-out: TDO cellular assay (A172) pIC50 Value: ?
Response line: +++ (+++ = pIC50 ≥5.50)

Each of the following entries comes with a recorded value; kindly state TDO cellular assay (A172) pIC50 for each.
1. CC(NC(=O)c1cc2cc(Cl)cnc2[nH]1)c1cnn(C)c1 (centres unmarked)
2. O=C(NC1CCOc2ccccc21)c1cc2ccccc2[nH]1 (centres unmarked)

Response line:
1. − (− = pIC50 <4.50)
2. − (− = pIC50 <4.50)

Each of the following entries comes with a recorded value; kindly state TDO cellular assay (A172) pIC50 for each.
1. CC(NC(=O)c1cc2cc(Cl)ccc2[nH]1)c1cnn(C(C)C)c1 (centres unmarked)
2. O=C(NCc1cccc(Cl)c1)c1cc2ccccc2[nH]1
3. CC(NC(=O)c1cc2ccccc2[nH]1)c1ccccn1 (centres unmarked)

Response line:
1: − (− = pIC50 <4.50); 2: − (− = pIC50 <4.50); 3: − (− = pIC50 <4.50)

Each of the following entries comes with a recorded value; kindly state TDO cellular assay (A172) pIC50 for each.
1. C[C@H](NC(=O)c1cc2ccc(F)cc2[nH]1)c1ccccc1
2. O=C(NC1(c2cccnc2)CC1)c1cc2cc(Cl)ccc2[nH]1

Response line:
− (− = pIC50 <4.50)
− (− = pIC50 <4.50)

Each of the following entries comes with a recorded value; kindly state TDO cellular assay (A172) pIC50 for each.
1. O=C(NC1(c2ccccc2)COC1)c1cc2ccc(C(F)F)cc2[nH]1
2. O=C(NC1(c2nc(-c3ccccc3)no2)CC1)c1cc2cc(Cl)ccc2[nH]1
3. COc1ccc(-c2noc(CNC(=O)c3cc4cc(Cl)ccc4[nH]3)n2)cc1OC

Response line:
["− (− = pIC50 <4.50)", "− (− = pIC50 <4.50)", "− (− = pIC50 <4.50)"]

Source: patent US10167257B2
